Value source: ChEMBL document CHEMBL1153245

test system: SNB-19; assay: Anticancer activity against human SNB19 cells after 48 hrs by sulforhodamine B assay; type: functional; settings: Homo sapiens, SNB-19, 48 h
# GI50 per entry
Please respond with the number in nM and leave the unit unwritten.

CCCCCCCCCCCCCCCCCC[n+]1ccn(C)c1.O=S(=O)([N-]S(=O)(=O)C(F)(F)F)C(F)(F)F | 1180
CCCCCCCCCCCC[n+]1ccn(C)c1.[Cl-] | 6760
CCCCCCCCCCCCCCCCCC[n+]1ccn(C)c1.FC(F)(F)C(F)(F)[P-](F)(F)(F)(C(F)(F)C(F)(F)F)C(F)(F)C(F)(F)F | 422
CCCCCCCCCCCCCCCC[n+]1ccn(C)c1.[Cl-] | 1220

Please turn your attention to the following entry.
Param item: CCCCCCCCCCCCCCCCCC[n+]1ccn(C)c1.[Cl-] ; param system: SNB-19; output GI50: 1220

====

tested on: SNB-75; test: Anticancer activity against human SNB75 cells after 48 hrs by sulforhodamine B assay; type: functional; conditions: Homo sapiens, SNB-75, 48 h
metric-name: GI50 (nM)
Please state the figure in nM; there is no need to write the unit.

Please review the following examples before continuing.
CCCCCCCCCCCCCCCCCC[n+]1ccn(C)c1.FC(F)(F)C(F)(F)[P-](F)(F)(F)(C(F)(F)C(F)(F)F)C(F)(F)C(F)(F)F | 419
CCCCCCCCCCCCCCCC[n+]1ccn(C)c1.[Cl-] | 555
CCCCCCCCCCCCCCCCCC[n+]1ccn(C)c1.O=S(=O)([N-]S(=O)(=O)C(F)(F)F)C(F)(F)F | 530

CCCCCCCCCCCC[n+]1ccn(C)c1.[Cl-] has a reported GI50 of 2740

====

test system: HCT-116; test: Anticancer activity against human HCT116 cells assessed cell growth at 10 uM after 48 hrs by sulforhodamine B assay relative to control; format: functional
metric-name: Activity (%)
A number alone suffices; assume %.

CCCCCCCCCCCCCCCCCC[n+]1ccn(C)c1.FC(F)(F)C(F)(F)[P-](F)(F)(F)(C(F)(F)C(F)(F)F)C(F)(F)C(F)(F)F | -57.3
Cn1cc[n+](CCO)c1.O=S(=O)([N-]S(=O)(=O)C(F)(F)F)C(F)(F)F | 100.02
CCCCCCCCCCCC[n+]1ccn(C)c1.[Cl-] | 17.62
Cn1cc[n+](Cc2ccccc2)c1.F[P-](F)(F)(F)(F)F | 107.98
CCCCCCCC[n+]1ccn(C)c1.F[B-](F)(F)F | 66.53
CCCCCCCCCCCCCCCC[n+]1ccn(C)c1.[Cl-] | -87.23

In plain terms, CCCCCCCC[n+]1ccn(C)c1.[Cl-] has a documented Activity of 62.3

Reported Activity for CCCCCC[n+]1ccn(C)c1.O=S(=O)([N-]S(=O)(=O)C(F)(F)F)C(F)(F)F was 80.77

====

test system: SNB-75; assay: Anticancer activity against human SNB75 cells assessed cell growth at 10 uM after 48 hrs by sulforhodamine B assay relative to control; type: functional
Listing: Activity of selected compounds
Report only the number, with the unit % understood.

Example entries begin here.
CCCCCC[n+]1ccn(C)c1.FC(F)(F)C(F)(F)[P-](F)(F)(F)(C(F)(F)C(F)(F)F)C(F)(F)C(F)(F)F | 88.07
COCC[n+]1ccn(C)c1.O=S(=O)([N-]S(=O)(=O)C(F)(F)F)C(F)(F)F | 80.79
CCCCCCCCCCCCCCCCCC[n+]1ccn(C)c1.[Cl-] | -74.36
CCCCCCCCCCCC[n+]1ccn(C)c1.F[B-](F)(F)F | 3.39
CCCCCCCCCCCCCCCCCC[n+]1ccn(C)c1.O=S(=O)([N-]S(=O)(=O)C(F)(F)F)C(F)(F)F | -55.13

Please examine the following record next.
response.value for CCCCCCCCCCCC[n+]1ccn(C)c1.[Cl-] (field: Activity) = -10.6

====

tested on: HT-29; assay: Anticancer activity against human HT-29 cells after 48 hrs by sulforhodamine B assay; type: functional; conditions: Homo sapiens, HT-29, 48 h; read-out: LC50 (the source's name)
metric-name: CC50 (µM)
API: value field is a number in µM; no unit string.

CCCCCCCCCCCCCCCCCC[n+]1ccn(C)c1.O=S(=O)([N-]S(=O)(=O)C(F)(F)F)C(F)(F)F | 9.13

Please turn your attention to the following entry.
Quick note, CC50 for CCCCCCCCCCCCCCCC[n+]1ccn(C)c1.[Cl-] landed at 5.06

====

test system: HOP-62; experiment: Anticancer activity against human HOP62 cells assessed cell growth at 10 uM after 48 hrs by sulforhodamine B assay relative to control; type: functional
metric-name: Activity

Check out these entries, answers already filled in.
CCCCCCCCCCCCCCCCCC[n+]1ccn(C)c1.O=S(=O)([N-]S(=O)(=O)C(F)(F)F)C(F)(F)F | -74.14%
CCCCCC[n+]1ccn(C)c1.FC(F)(F)C(F)(F)[P-](F)(F)(F)(C(F)(F)C(F)(F)F)C(F)(F)C(F)(F)F | 88.12%

Quick note, Activity for CCCCCC[n+]1ccn(C)c1.O=S(=O)([N-]S(=O)(=O)C(F)(F)F)C(F)(F)F landed at 89.75%

Activity in this record for CCCCCCCCCCCCCCCCCC[n+]1ccn(C)c1.FC(F)(F)C(F)(F)[P-](F)(F)(F)(C(F)(F)C(F)(F)F)C(F)(F)C(F)(F)F : -79.75%

Note to self: Activity recorded for CCCCCCCCCCCC[n+]1ccn(C)c1.[Cl-] was 38.17%

====

tested on: OVCAR-3; experiment: Anticancer activity against human OVCAR-3 cells assessed cell growth at 10 uM after 48 hrs by sulforhodamine B assay relative to control; format: functional
metric-name: Activity (%)
State just the number; it will be interpreted in %.

Documented Activity of CCCCCCCCCCCCCCCCCC[n+]1ccn(C)c1.[Cl-] : -48.71

The compound CCCCCCCC[n+]1ccn(C)c1.[Cl-] showed Activity equal to 81.96

The compound listed as CCCCCCCCOS(=O)(=O)[O-].CCCCCCCC[n+]1ccn(C)c1 shows Activity equal to 81.64

get_value(item= CCCCCCCCCCCCCCCCCC[n+]1ccn(C)c1.O=S(=O)([N-]S(=O)(=O)C(F)(F)F)C(F)(F)F , readout=Activity) returns -56.27

Lab note: measured Activity of CCCCCCCCCCCCCCCC[n+]1ccn(C)c1.[Cl-] was -24.76

Given item CCCCCCCC[n+]1ccn(C)c1.F[B-](F)(F)F , the value recorded as its Activity is 102.92

What the record says about CCCCCCCCCCCCCCCCCC[n+]1ccn(C)c1.F[P-](F)(F)(F)(F)F : Activity is -57.4

====

tested on: SNB-75; assay: Anticancer activity against human SNB75 cells assessed cell growth at 10 uM after 48 hrs by sulforhodamine B assay relative to control; assay type: functional
Parameter: Activity. Scope: all listed entries.
Number only, in %; omit the unit.

Use the examples below as a reference point.
Cn1cc[n+](Cc2ccccc2)c1.F[P-](F)(F)(F)(F)F | 83.18
CCCCCC[n+]1ccn(C)c1.O=S(=O)([N-]S(=O)(=O)C(F)(F)F)C(F)(F)F | 94.84
CCCCCCCC[n+]1ccn(C)c1.[Cl-] | 83.9
CCCCCCCCCCCCCCCC[n+]1ccn(C)c1.[Cl-] | -98.62
CCCCCCCC[n+]1ccn(C)c1.F[P-](F)(F)(F)(F)F | 70.71
CCCCCCCC[n+]1ccn(C)c1.F[B-](F)(F)F | 84.84
CCCCCCCCCCCCCCCCCC[n+]1ccn(C)c1.FC(F)(F)C(F)(F)[P-](F)(F)(F)(C(F)(F)C(F)(F)F)C(F)(F)C(F)(F)F | -47.53
Cn1cc[n+](CCO)c1.O=S(=O)([N-]S(=O)(=O)C(F)(F)F)C(F)(F)F | 79.94
CCCCCCCCCCCCCCCCCC[n+]1ccn(C)c1.F[P-](F)(F)(F)(F)F | -68.15

// next item, Activity requested
For record CCCCCCCCOS(=O)(=O)[O-].CCCCCCCC[n+]1ccn(C)c1 the listed Activity is 84.66

====

In this section, each of the compounds is paired with its reported log10(GI50).
system: T47D; experiment: Anticancer activity against human T47D cells after 48 hrs by sulforhodamine B assay; format: functional; details: Homo sapiens, T47D, 48 h
Please interpret these as log10 of GI50 where GI50 is in nM.

CCCCCCCCCCCCCCCC[n+]1ccn(C)c1.[Cl-] | 2.75
CCCCCCCCCCCCCCCCCC[n+]1ccn(C)c1.[Cl-] | 2.74
CCCCCCCCCCCC[n+]1ccn(C)c1.[Cl-] | 3.63

T47D data for CCCCCCCCCCCCCCCCCC[n+]1ccn(C)c1.O=S(=O)([N-]S(=O)(=O)C(F)(F)F)C(F)(F)F ; its log10(GI50): 2.78

Fill in: T47D log10(GI50) for CCCCCCCCCCCCCCCCCC[n+]1ccn(C)c1.FC(F)(F)C(F)(F)[P-](F)(F)(F)(C(F)(F)C(F)(F)F)C(F)(F)C(F)(F)F = 2.45
